# credit: patent US20210269525A1

# target.system: human CD3e (T-cell surface glycoprotein CD3 epsilon chain) (human, UniProt P07766 23-207)
# assay.protocol: cell-based or functional assay
measurement.type: EC50, luciferase of Jurkat-Luc-NFAT cells; antibody from supernatant

These recorded examples may help you get a feel for the data.
1) 1B1-H4K2-IgG1-LALA (antibody, V domains shown, Humanized; human IgG1 with LALA mutations; also called H4K2 (humanized 1B1)) VH: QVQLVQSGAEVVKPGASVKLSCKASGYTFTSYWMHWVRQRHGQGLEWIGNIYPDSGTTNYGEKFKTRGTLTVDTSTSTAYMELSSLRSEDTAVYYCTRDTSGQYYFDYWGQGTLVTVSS VL: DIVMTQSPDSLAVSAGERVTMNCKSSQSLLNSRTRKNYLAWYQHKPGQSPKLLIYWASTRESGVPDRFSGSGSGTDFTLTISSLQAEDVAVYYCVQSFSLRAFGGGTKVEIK; > 3 µg/mL
2) 1B1-H3K2-IgG1-LALA (antibody, V domains shown, Humanized; human IgG1 with LALA mutations; also called H3K2 (humanized 1B1)) VH: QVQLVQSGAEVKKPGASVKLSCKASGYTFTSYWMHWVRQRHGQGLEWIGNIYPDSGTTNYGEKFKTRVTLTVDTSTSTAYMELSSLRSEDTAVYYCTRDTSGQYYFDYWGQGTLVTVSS VL: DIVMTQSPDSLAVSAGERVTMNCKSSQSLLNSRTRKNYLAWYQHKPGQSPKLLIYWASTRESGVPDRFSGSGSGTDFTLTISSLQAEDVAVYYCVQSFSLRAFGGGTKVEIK; > 3.08 µg/mL
3) 1B1-H2K3-IgG1-LALA (antibody, V domains shown, Humanized; human IgG1 with LALA mutations; also called H2K3 (humanized 1B1)) VH: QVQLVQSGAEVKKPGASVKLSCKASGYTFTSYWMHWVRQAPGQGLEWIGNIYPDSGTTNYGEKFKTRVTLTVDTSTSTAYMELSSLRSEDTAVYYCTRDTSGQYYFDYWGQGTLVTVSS VL: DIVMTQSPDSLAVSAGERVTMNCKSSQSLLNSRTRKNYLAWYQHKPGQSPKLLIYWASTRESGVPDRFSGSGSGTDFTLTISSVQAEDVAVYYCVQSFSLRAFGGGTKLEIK; > 16.7 µg/mL

QUERY: Provide only the value of recorded EC50, luciferase of Jurkat-Luc-NFAT cells; antibody from supernatant for 1B1-H3K1-IgG1-LALA (antibody, V domains shown, Humanized; human IgG1 with LALA mutations; also called H3K1 (humanized 1B1)) VH: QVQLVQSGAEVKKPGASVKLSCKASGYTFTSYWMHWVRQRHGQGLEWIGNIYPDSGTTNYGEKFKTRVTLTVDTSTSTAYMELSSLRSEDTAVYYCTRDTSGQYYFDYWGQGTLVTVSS VL: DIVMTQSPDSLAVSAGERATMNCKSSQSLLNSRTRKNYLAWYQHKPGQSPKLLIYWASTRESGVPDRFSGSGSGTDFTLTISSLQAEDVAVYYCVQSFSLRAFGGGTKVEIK
RESULT: > 3.06 µg/mL

QUERY: Provide only the value of recorded EC50, luciferase of Jurkat-Luc-NFAT cells; antibody from supernatant for 1B1-H2K1-IgG1-LALA (antibody, V domains shown, Humanized; human IgG1 with LALA mutations; also called H2K1 (humanized 1B1)) VH: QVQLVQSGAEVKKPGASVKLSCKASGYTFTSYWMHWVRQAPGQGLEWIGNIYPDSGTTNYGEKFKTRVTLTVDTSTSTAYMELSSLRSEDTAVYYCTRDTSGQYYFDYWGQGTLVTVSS VL: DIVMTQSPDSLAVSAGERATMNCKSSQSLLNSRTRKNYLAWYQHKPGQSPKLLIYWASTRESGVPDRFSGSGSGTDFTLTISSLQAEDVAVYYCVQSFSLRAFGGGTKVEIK
RESULT: > 2.79 µg/mL
